These measurements were taken from patent US20150342954A1.

molecular target: soluble guanylate cyclase (sGC) (Homo sapiens, UniProt Q02108+Q02153); construct: endogenously expressing soluble guanylate cyclase (sGC); endogenous in cells; host or cells: HEK293; experiment: sGC-HEK-cGMP assay (run with SNP incubation); assay type: cell-based; settings: concentration that would elicit 10% of the Emax in the presence of 10 μM SNP; Table 3D
Sequence (Q02153 whole entry): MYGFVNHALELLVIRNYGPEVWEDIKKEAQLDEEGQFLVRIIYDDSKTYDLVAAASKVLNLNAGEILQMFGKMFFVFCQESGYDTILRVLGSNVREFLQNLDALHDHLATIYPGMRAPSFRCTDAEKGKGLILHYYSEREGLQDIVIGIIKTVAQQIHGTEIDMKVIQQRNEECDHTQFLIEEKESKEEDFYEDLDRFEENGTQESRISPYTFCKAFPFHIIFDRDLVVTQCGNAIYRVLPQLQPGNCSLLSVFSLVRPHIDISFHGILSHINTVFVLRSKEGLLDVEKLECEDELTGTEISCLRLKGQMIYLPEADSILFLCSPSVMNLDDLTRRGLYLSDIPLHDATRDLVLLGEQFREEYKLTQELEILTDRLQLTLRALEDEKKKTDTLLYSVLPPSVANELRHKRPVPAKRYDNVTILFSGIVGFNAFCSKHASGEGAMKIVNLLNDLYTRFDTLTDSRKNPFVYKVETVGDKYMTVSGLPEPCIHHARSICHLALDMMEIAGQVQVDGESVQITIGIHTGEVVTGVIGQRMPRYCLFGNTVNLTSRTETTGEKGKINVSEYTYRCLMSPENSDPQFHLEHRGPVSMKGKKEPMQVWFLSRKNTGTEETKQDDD
Sequence (Q02108 whole entry): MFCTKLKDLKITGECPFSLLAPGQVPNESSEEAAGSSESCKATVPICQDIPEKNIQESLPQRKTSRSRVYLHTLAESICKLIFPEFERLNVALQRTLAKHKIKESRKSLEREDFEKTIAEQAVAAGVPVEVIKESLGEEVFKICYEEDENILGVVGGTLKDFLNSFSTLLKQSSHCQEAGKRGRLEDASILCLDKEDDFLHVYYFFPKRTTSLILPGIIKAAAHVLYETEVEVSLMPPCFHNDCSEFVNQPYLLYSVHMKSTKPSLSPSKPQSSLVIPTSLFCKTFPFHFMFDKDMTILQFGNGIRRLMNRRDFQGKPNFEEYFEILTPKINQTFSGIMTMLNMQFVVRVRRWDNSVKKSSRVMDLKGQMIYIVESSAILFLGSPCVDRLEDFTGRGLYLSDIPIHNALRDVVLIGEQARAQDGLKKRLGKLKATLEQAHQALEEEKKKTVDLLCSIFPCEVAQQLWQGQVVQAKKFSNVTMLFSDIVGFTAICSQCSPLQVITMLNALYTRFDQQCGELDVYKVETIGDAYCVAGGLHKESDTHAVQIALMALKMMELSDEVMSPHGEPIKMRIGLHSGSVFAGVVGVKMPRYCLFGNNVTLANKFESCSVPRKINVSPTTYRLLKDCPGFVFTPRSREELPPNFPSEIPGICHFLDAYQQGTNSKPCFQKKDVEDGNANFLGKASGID
REPORTED_ENDPOINT: HEK MEC-10

A selection of reference data follows.
{"columns": ["MOLECULE", "TARGET_DESC", "REPORTED_ENDPOINT", "OBSERVED"],
 "data": [
  ["CN(c1ccccc1)S(=O)(=O)c1cnc(-c2cc(-c3ccon3)n(Cc3ccccc3F)n2)[nH]c1=O [Compound 25]", "soluble guanylate cyclase (sGC) (Homo sapiens, UniProt Q02108+Q02153)", "HEK MEC-10", "C (0.1 to <1 μM)"],
  ["CN(C1CC1)S(=O)(=O)c1cnc(-c2cc(-c3ccon3)n(Cc3ccccc3F)n2)[nH]c1=O [Compound 14]", "soluble guanylate cyclase (sGC) (Homo sapiens, UniProt Q02108+Q02153)", "HEK MEC-10", "B (0.01 to <0.1 μM)"],
  ["NNc1nc(-c2cc(-c3ccon3)n(Cc3ccccc3F)n2)ncc1F [Compound 56]", "soluble guanylate cyclase (sGC) (Homo sapiens, UniProt Q02108+Q02153)", "HEK MEC-10", "B (0.01 to <0.1 μM)"],
  ["CN(Cc1ccccc1)S(=O)(=O)c1cnc(-c2cc(-c3ccon3)n(Cc3ccccc3F)n2)[nH]c1=O [Compound 16]", "soluble guanylate cyclase (sGC) (Homo sapiens, UniProt Q02108+Q02153)", "HEK MEC-10", "C (0.1 to <1 μM)"],
  ["CC(C)(CC(F)(F)F)C(=O)Nc1cnc(-c2cc(-c3ccon3)n(Cc3ccccc3F)n2)nc1N [Compound 53]", "soluble guanylate cyclase (sGC) (Homo sapiens, UniProt Q02108+Q02153)", "HEK MEC-10", "C (0.1 to <1 μM)"],
  ["Nc1nc(-c2cc(-c3ccon3)n(Cc3ccccc3F)n2)ncc1NC(=O)C1(c2ccccc2F)CC1 [Compound 9]", "soluble guanylate cyclase (sGC) (Homo sapiens, UniProt Q02108+Q02153)", "HEK MEC-10", "B (0.01 to <0.1 μM)"],
  ["N#CC1(C(=O)Nc2cnc(-c3cc(-c4ncco4)n(Cc4ccccc4F)n3)nc2N)CC1 [Compound 47]", "soluble guanylate cyclase (sGC) (Homo sapiens, UniProt Q02108+Q02153)", "HEK MEC-10", "B (0.01 to <0.1 μM)"],
  ["COc1ccc(C2(C(=O)Nc3cnc(-c4cc(-c5ccon5)n(Cc5ccccc5F)n4)nc3N)CC2)cc1 [Compound 12]", "soluble guanylate cyclase (sGC) (Homo sapiens, UniProt Q02108+Q02153)", "HEK MEC-10", "B (0.01 to <0.1 μM)"],
  ["Nc1nc(-c2cc(-c3ccon3)n(Cc3ccccc3F)n2)ncc1NC(=O)C1(c2cccc(F)c2)CC1 [Compound 11]", "soluble guanylate cyclase (sGC) (Homo sapiens, UniProt Q02108+Q02153)", "HEK MEC-10", "B (0.01 to <0.1 μM)"],
  ["Oc1nc(-c2cc(-c3ccon3)n(Cc3ccccc3F)n2)ncc1Sc1ccc(Cl)cc1 [Compound 6]", "soluble guanylate cyclase (sGC) (Homo sapiens, UniProt Q02108+Q02153)", "HEK MEC-10", "C (0.1 to <1 μM)"]
]}

Briefly, HEK MEC-10 measured for Oc1nc(-c2cc(-c3ccon3)n(Cc3ccccc3F)n2)ncc1Sc1ccc(F)cc1 [Compound 4] : C (0.1 to <1 μM)

Briefly, HEK MEC-10 measured for O=c1[nH]c(-c2cc(-c3ccon3)n(Cc3cccnc3F)n2)ncc1F [Compound 67] : B (0.01 to <0.1 μM)

Briefly, HEK MEC-10 measured for O=c1[nH]c(-c2cc(-c3ccon3)n(Cc3c(F)ccc(F)c3F)n2)ncc1F [Compound 19] : D (1 to <10 μM)

Briefly, HEK MEC-10 measured for Nc1ccnc(-c2cc(-c3ccon3)n(Cc3cccc(F)c3F)n2)n1 [Compound 37] : C (0.1 to <1 μM)
